Source of measurements: patent US4921984A

test system: mouse leukemia L1210; assay: Antitumor activity test on mouse leukemia L1210 in vivo; conditions: L1210, average survival time treated/control ×100, i.p. once a day for 5 days
TRUE means recorded max (T/C) is 300% or above; FALSE means it is below 300%.

## Task Tell me whether max (T/C) is at least 300% here: CC1CC[NH2+][Pt-2]2([NH2+]C1)[O]C(=O)C(C)(C)C(=O)[O]2 (racemic)
## Result FALSE

## Task Try this compound too: CC1(C)CC[NH2+][Pt-2]2([NH2+]C1)[O]C(=O)C(=O)[O]2
## Result FALSE

## Task Follow-up entry: C[C@@H](CN)CCN.O=C([O-])C1(C(=O)[O-])CCC1.[Pt+2] (stereo in doubt) [15R]
## Result FALSE

## Task Another compound to look at: CC(C)(CN)CCN.O=C([O-])C1(C(=O)[O-])CCC1.[Pt+2]
## Result TRUE

Please look at the following compound next.
## Task Hi team, for CC1CCC[NH2+][Pt-2]([Cl])([Cl])[NH2+]1 (racemic) , is the recorded max (T/C) at or above 300%?
## Result FALSE

* * *

system: mouse leukemia L1210; test: Antitumor activity test on mouse leukemia L1210 in vivo; conditions: L1210-bearing CDF1 mice, i.p. once a day for 5 days
# note: boundary value 5 mg/kg maps to NO; LD50 below it maps to YES

## Task Determine if O=C1[O][Pt-2]2([NH2+]CCCC[NH2+]2)[O]C(=O)C12CCOCC2 shows LD50 strictly lower than 5 mg/kg.
## Result NO

## Task Same read-out for O=C1[O][Pt-2]2([NH2+]CCCC[NH2+]2)[O]C(=O)C12CCC2 ?
## Result NO

## Task Then what about the compound CC1CC[NH2+][Pt-2]2([NH2+]C1)[O]C(=O)C1(CCOCC1)C(=O)[O]2 (racemic) ?
## Result NO

## Task // query: CCC1CCC[NH2+][Pt-2]([Cl])([Cl])[NH2+]1 (racemic)
## Result NO

## Task Moving on to [Cl][Pt-2]1([Cl])[NH2+]CCCC[NH2+]1 [Compound No. 1, cis-Dichloro-1,4-butanediamine platinum]
## Result YES

New cases:
## Task Consider the compound CC1(C)CC[NH2+][Pt-2]([Cl])([Cl])[NH2+]C1 . Is its LD50 strictly less than 5 mg/kg?
## Result NO

## Task Record: C[C@@H](CN)CCN.O=C([O-])C1(C(=O)[O-])CCC1.[Pt+2] (stereo in doubt) [15R]
## Result NO

## Task Next compound up: CC1CCC[NH2+][Pt-2]([Cl])([Cl])[NH2+]1 (racemic)
## Result YES

## Task Same thing, different compound: CCC1C(=O)[O][Pt-2]2([NH2+]CCC(C)C[NH2+]2)[O]C1=O (racemic)
## Result NO

## Task Try this compound next: CC1CC[NH2+][Pt-2]2([NH2+]C1)[O]C(=O)C1(CCC1)C(=O)[O]2 (racemic)
## Result NO

## Task Next entry: CC1(C)CCC[NH2+][Pt-2]([Cl])([Cl])[NH2+]1
## Result YES

## Task Try this compound too: CC1CC[NH2+][Pt-2]([Cl])([Cl])[NH2+]C1 (racemic)
## Result YES

## Task Also need CCC1CC[NH2+][Pt-2]([Cl])([Cl])[NH2+]C1 (racemic) , thanks.
## Result YES

## Task What do you have for C[C@H]1CC[NH2+][Pt-2]2([NH2+]C1)[O]C(=O)C1(CCC1)C(=O)[O]2 [15S] ?
## Result NO

## Task Also, CCC1C(=O)[O][Pt-2]2([NH2+]CCCC(C)[NH2+]2)[O]C1=O (racemic) please.
## Result NO
